Examples of compounds with documented pIC50 follow.
Target: Prostaglandin G/H synthase 2 (Homo sapiens, UniProt P35354)
Sequence (P35354 whole entry): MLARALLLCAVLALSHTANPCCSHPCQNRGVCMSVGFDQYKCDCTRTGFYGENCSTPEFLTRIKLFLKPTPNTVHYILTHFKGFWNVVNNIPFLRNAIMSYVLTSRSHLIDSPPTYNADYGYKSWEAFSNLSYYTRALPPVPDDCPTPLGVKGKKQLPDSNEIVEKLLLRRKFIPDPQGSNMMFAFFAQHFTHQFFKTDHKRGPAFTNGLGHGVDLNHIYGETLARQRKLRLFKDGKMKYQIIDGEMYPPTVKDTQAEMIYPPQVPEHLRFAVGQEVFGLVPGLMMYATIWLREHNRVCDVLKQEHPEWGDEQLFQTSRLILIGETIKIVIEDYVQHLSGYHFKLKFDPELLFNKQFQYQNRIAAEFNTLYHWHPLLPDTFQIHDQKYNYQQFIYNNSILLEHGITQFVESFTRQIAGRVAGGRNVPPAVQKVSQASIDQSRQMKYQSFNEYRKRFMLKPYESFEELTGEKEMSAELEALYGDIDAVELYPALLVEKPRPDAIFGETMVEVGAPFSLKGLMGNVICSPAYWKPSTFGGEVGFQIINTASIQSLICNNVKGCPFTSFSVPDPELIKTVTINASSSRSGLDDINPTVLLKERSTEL
pIC50: −log10 of the molar value.
reported.metric: pIC50

>>> print(df.to_string())
                                    compound  reported_metric  readout_relation  endpoint_value
 0  CC(C)c1ccc(C2=C(c3ccc(S(C)(=O)=O)cc3)C(C)(O)OC2=O)cc1 (stereo not given)            pIC50                 =            6.39
 1  CC1(O)OC(=O)C(c2ccsc2)=C1c1ccc(S(C)(=O)=O)cc1 (stereo not given)            pIC50                 =            6.96
 2  CC1(O)OC(=O)C(c2ccc(O)cc2)=C1c1ccc(S(C)(=O)=O)cc1 (stereo not given)            pIC50                 <            5.30
 3  CC1(O)OC(=O)C(c2ccc(Cl)c(Cl)c2)=C1c1ccc(S(C)(=O)=O)cc1 (stereo not given)            pIC50                 =            7.15
 4  CC1(O)OC(=O)C(c2ccc(Cl)cc2)=C1c1ccc(S(C)(=O)=O)cc1 (stereo not given)            pIC50                 =            6.96
 5  CC1(O)OC(=O)C(c2ccc(Br)cc2)=C1c1ccc(S(C)(=O)=O)cc1 (stereo not given)            pIC50                 =            6.85
 6  CC1(O)OC(=O)C(Sc2ccccc2)=C1c1ccc(S(C)(=O)=O)cc1 (stereo not given)            pIC50                 <            5.30
 7  CC1(OCC(F)(F)F)OC(=O)C(c2ccc(F)cc2)=C1c1ccc(S(C)(=O)=O)cc1 (stereo not given)            pIC50                 =            6.49
 8  COC1(C)OC(=O)C(c2ccc(F)cc2)=C1c1ccc(S(C)(=O)=O)cc1 (stereo not given)            pIC50                 =            7.16
 9  CC1(O)OC(=O)C(c2ccc(F)cc2)=C1c1ccc(S(C)(=O)=O)cc1 (stereo not given)            pIC50                 =            6.42
10  CSc1ccc(C2=C(c3ccc(S(C)(=O)=O)cc3)C(C)(O)OC2=O)cc1 (stereo not given)            pIC50                 =            6.51
11  CC1(O)OC(=O)C(c2ccc(F)c(F)c2)=C1c1ccc(S(C)(=O)=O)cc1 (stereo not given)            pIC50                 =            6.70
12  CC1(O)OC(=O)C(c2ccc3ccccc3c2)=C1c1ccc(S(C)(=O)=O)cc1 (stereo not given)            pIC50                 =            6.35
13  CC1(O)OC(=O)C(Oc2ccc(F)c(F)c2)=C1c1ccc(S(C)(=O)=O)cc1 (stereo not given)            pIC50                 <            5.30
14  CC1(O)OC(=O)C(c2ccc(Cl)cc2Cl)=C1c1ccc(S(C)(=O)=O)cc1 (stereo not given)            pIC50                 =            5.92
15  CC1(O)OC(=O)C(c2ccc(F)c(Cl)c2)=C1c1ccc(S(C)(=O)=O)cc1 (stereo not given)            pIC50                 =            6.96
16  CC1(O)OC(=O)C(c2ccccc2)=C1c1ccc(S(C)(=O)=O)cc1 (stereo not given)            pIC50                 =            6.80
17  CC1(O)OC(=O)C(c2cccs2)=C1c1ccc(S(C)(=O)=O)cc1 (stereo not given)            pIC50                 =            5.72
18  CC1(O)OC(=O)C(c2cccc(F)c2)=C1c1ccc(S(C)(=O)=O)cc1 (stereo not given)            pIC50                 =            6.60
19  CC1(O)OC(=O)C(c2cc(F)cc(F)c2)=C1c1ccc(S(C)(=O)=O)cc1 (stereo not given)            pIC50                 =            6.26

* * *

Examples of compounds with documented pIC50 follow.
Biological target: Prostaglandin G/H synthase 2 (Homo sapiens)
Sequence (P35354 whole entry): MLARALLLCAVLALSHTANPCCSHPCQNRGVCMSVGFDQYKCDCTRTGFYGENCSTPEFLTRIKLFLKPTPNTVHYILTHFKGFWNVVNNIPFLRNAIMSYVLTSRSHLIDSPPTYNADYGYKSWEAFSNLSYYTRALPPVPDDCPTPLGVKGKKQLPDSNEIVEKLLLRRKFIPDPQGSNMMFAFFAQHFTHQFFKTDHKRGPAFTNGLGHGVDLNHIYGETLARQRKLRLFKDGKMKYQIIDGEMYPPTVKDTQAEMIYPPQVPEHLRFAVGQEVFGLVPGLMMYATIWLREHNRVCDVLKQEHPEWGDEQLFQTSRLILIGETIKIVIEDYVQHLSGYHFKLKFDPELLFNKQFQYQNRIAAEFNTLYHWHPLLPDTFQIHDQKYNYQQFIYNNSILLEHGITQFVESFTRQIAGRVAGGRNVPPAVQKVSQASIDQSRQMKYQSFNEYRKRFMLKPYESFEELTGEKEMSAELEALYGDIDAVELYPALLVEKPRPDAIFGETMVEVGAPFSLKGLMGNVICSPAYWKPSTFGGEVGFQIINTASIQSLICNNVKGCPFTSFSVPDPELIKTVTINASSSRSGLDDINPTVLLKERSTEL
Test: Inhibitory concentration was measured against Cyclooxygenase-2 in human whole blood
Format: tissue-based
pIC50: −log10 of the molar value.
reported.metric: pIC50

>>> print(df.to_string())
                                   compound                          target_or_system  endpoint_value
0  CC1(O)OC(=O)C(c2ccc(F)cc2)=C1c1ccc(S(C)(=O)=O)cc1 (configuration not stated)  Prostaglandin G/H synthase 2 (Homo sapiens)            5.74
1  COC1(C)OC(=O)C(c2ccc(F)cc2)=C1c1ccc(S(C)(=O)=O)cc1 (configuration not stated)  Prostaglandin G/H synthase 2 (Homo sapiens)            7.00

* * *

test: Oral bioavailability in rat; assay type: ADME, organism-based; conditions: in vivo
reported.metric: bioavailability (%)

                                   compound  endpoint_value
0  CC1(OCC(F)(F)F)OC(=O)C(c2ccc(F)cc2)=C1c1ccc(S(C)(=O)=O)cc1 (stereo unspecified)              35

* * *

Examples of molecules with documented IC50 follow.
target: Prostaglandin G/H synthase 1 (Homo sapiens, UniProt P23219); format: microsomes
Sequence (P23219 whole entry): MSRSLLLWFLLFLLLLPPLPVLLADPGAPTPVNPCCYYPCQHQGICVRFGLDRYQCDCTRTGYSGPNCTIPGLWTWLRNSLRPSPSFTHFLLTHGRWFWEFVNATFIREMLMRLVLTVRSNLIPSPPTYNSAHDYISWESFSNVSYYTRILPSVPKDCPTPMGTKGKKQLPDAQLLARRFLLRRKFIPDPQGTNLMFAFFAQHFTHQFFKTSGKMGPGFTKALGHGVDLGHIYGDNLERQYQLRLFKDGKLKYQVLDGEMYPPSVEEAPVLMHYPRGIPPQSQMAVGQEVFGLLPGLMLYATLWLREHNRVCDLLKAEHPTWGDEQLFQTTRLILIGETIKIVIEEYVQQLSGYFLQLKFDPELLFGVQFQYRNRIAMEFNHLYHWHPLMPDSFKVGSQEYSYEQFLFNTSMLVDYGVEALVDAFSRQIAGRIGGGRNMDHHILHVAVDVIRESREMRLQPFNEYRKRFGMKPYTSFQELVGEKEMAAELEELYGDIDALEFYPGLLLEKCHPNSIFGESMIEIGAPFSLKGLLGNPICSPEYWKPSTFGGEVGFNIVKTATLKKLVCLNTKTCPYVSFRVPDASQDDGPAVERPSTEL
Description: Inhibitory concentration was measured against Prostaglandin G/H synthase 1 in the sensitive U937 microsome assay
reported.metric: IC50 (µM)

In [3]: df
Out[3]:
                                    molecule  measure_unit  readout_relation  endpoint_value
 0  CC(C)c1ccc(C2=C(c3ccc(S(C)(=O)=O)cc3)C(C)(O)OC2=O)cc1 (configuration not stated)            µM                 >             300
 1  CC1(O)OC(=O)C(c2ccc(Br)cc2)=C1c1ccc(S(C)(=O)=O)cc1 (configuration not stated)            µM                 =             101
 2  CC(C)OC1(C)OC(=O)C(c2ccc(F)cc2)=C1c1ccc(S(C)(=O)=O)cc1 (configuration not stated)            µM                 =               3
 3  CC1(O)OC(=O)C(c2ccc(Cl)cc2Cl)=C1c1ccc(S(C)(=O)=O)cc1 (configuration not stated)            µM                 >             100
 4  CC1(O)OC(=O)C(c2ccccc2)=C1c1ccc(S(C)(=O)=O)cc1 (configuration not stated)            µM                 >             100
 5  CC1(O)OC(=O)C(c2ccc(F)c(F)c2)=C1c1ccc(S(C)(=O)=O)cc1 (configuration not stated)            µM                 >             300
 6  CCOC1(C)OC(=O)C(c2ccc(F)cc2)=C1c1ccc(S(C)(=O)=O)cc1 (configuration not stated)            µM                 =              10
 7  CC1(O)OC(=O)C(c2ccc3ccccc3c2)=C1c1ccc(S(C)(=O)=O)cc1 (configuration not stated)            µM                 =              30
 8  CC1(O)OC(=O)C(c2cccc(F)c2)=C1c1ccc(S(C)(=O)=O)cc1 (configuration not stated)            µM                 >             100
 9  CC1(O)OC(=O)C(c2ccc(Cl)cc2)=C1c1ccc(S(C)(=O)=O)cc1 (configuration not stated)            µM                 =             105
10  CC1(O)OC(=O)C(c2cccs2)=C1c1ccc(S(C)(=O)=O)cc1 (configuration not stated)            µM                 >             100
11  CC1(OCC(F)(F)F)OC(=O)C(c2ccc(F)cc2)=C1c1ccc(S(C)(=O)=O)cc1 (configuration not stated)            µM                 >              10
